- system under test: uterine OT receptors (Rattus norvegicus)
- Construct: from tissue; host or cells: uterus of DES-treated rats, crude membranes
- Sequence (P70536 1-388): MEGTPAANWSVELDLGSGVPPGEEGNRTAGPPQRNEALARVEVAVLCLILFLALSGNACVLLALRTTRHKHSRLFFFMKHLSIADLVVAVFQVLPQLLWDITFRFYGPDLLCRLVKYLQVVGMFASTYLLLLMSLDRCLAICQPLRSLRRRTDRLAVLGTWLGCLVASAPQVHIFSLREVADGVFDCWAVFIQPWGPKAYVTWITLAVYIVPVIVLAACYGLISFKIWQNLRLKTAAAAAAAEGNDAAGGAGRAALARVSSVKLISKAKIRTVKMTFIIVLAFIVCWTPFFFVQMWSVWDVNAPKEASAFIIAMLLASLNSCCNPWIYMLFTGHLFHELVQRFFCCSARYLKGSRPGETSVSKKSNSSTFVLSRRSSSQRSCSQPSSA
- protocol details: [^3 H]OT binding to uterine OT receptors, crude membrane preparation of uteri from DES-treated rats
- recorded conditions: rat uterus membranes, 1 nM [^3 H]OT; read-out: Receptor Binding Results IC50 (nM) [^3 H]OT
Counter-ions that a name gives are not always drawn. Square brackets hold non-standard residues; d marks the D form. Peptide text beside a SMILES is read from it. * marks the point of attachment. dPiz(1,6-dehydro) = O=C(O)[C@H]1CCC=NN1; d2Nal = N[C@H](Cc1ccc2ccccc2c1)C(=O)O; dNMeY = CN[C@H](Cc1ccc(O)cc1)C(=O)O; NMeI = CC[C@H](C)[C@H](NC)C(=O)O; Pip(4-aza) = O=C(O)[C@@H]1CNCCN1; dNMeF = CN[C@H](Cc1ccccc1)C(=O)O; hPhe = N[C@@H](CCc1ccccc1)C(=O)O; Pip = O=C(O)[C@@H]1CCCCN1; dPip = O=C(O)[C@H]1CCCCN1; Orn = NCCC[C@H](N)C(=O)O; dNMeA = CN[C@H](C)C(=O)O; Bn = c1ccc(C*)cc1
measurement label: IC50 (nM)
API: value field is a number in nM; no unit string.

For the compound shown here, CN1C(=O)[C@@H]2CCCCN2C(=O)[C@H]2CCCCN2C(=O)[C@H](CCc2ccccc2)NC(=O)[C@@H](Cc2c[nH]c3ccccc23)NC(=O)[C@@H]2CCCN2C(=O)[C@H]1Cc1ccccc1 [Example 133] (cyclo(P[dW][hPhe][dPip][Pip][dNMeF])) , give the reported IC50.
3600

For the compound shown here, CC[C@H](C)[C@@H]1NC(=O)[C@@H](Cc2ccccc2)NC(=O)[C@@H]2CCCN2C(=O)[C@@H](Cc2ccccc2)N(C)C(=O)[C@H](CCCN)NC(=O)[C@H]2CCC=NN2C1=O [Example 125, acetate salt] (cyclo(I[dPiz(1,6-dehydro)][Orn][dNMeF]P[dF])) , give the reported IC50.
16

For the compound shown here, CC[C@H](C)[C@@H]1NC(=O)[C@@H](Cc2ccccc2)NC(=O)[C@@H]2CCCN2C(=O)[C@@H](Cc2c[nH]c3ccccc23)NC(=O)[C@@H]2CCCCN2C(=O)[C@H]2CCCCN2C1=O [Example 25] (cyclo(I[dPip][Pip][dW]P[dF])) , give the reported IC50.
120

For the compound shown here, CN1C(=O)[C@@H]2CCCCN2C(=O)[C@H]2CCCCN2C(=O)[C@H](Cc2ccccc2)NC(=O)[C@@H](Cc2c[nH]c3ccccc23)NC(=O)[C@@H]2CCCN2C(=O)[C@H]1Cc1ccccc1 [Example 31] (cyclo(F[dPip][Pip][dNMeF]P[dW])) , give the reported IC50.
100

For the compound shown here, CC[C@H](C)[C@@H]1NC(=O)[C@@H](Cc2ccccc2)NC(=O)[C@@H]2CCCN2C(=O)[C@@H](Cc2ccccc2)NC(=O)[C@H](CC(N)=O)NC(=O)[C@H]([C@@H](C)O)NC1=O [Example 98] (cyclo(ITN[dF]P[dF])) , give the reported IC50.
7700

For the compound shown here, CC[C@H](C)[C@@H]1NC(=O)[C@@H](Cc2ccc3ccccc3c2)NC(=O)[C@@H]2CCCN2C(=O)[C@@H](Cc2ccccc2)N(C)C(=O)[C@@H]2CNCCN2C(=O)[C@H]2CCCCN2C1=O [Example 171] (cyclo(I[dPip][Pip(4-aza)][dNMeF]P[d2Nal])) , give the reported IC50.
3.9

For the compound shown here, CC[C@H](C)[C@@H]1NC(=O)[C@@H](Cc2ccc(O)cc2)NC(=O)[C@@H]2CCCN2C(=O)[C@@H](Cc2ccccc2)N(C)C(=O)[C@H](CCCCN)NC(=O)[C@H]2CCCCN2C1=O [Example 147] (cyclo(I[dPip]K[dNMeF]P[dY])) , give the reported IC50.
860

For the compound shown here, CC[C@H](C)[C@H]1C(=O)N2CCCC[C@@H]2C(=O)N2CCCC[C@H]2C(=O)N(C)[C@H](Cc2ccccc2)C(=O)N2CCC[C@H]2C(=O)N(C)[C@H](C)C(=O)N1C [Example 16] (cyclo([NMeI][dPip][Pip][dNMeF]P[dNMeA])) , give the reported IC50.
650

For the compound shown here, CN1C(=O)[C@@H]2CCCCN2C(=O)[C@H]2CCCCN2C(=O)[C@H](Cc2ccccc2)NC(=O)[C@@H](Cc2c[nH]c3ccccc23)NC(=O)[C@@H]2CCCN2C(=O)[C@H]1Cc1ccccc1 [Example 134] (cyclo(F[dPip][Pip][dNMeF]P[dW])) , give the reported IC50.
110

For the compound shown here, CC[C@H](C)[C@@H]1NC(=O)[C@@H](Cc2ccccc2)NC(=O)[C@@H]2CCCN2C(=O)[C@@H](Cc2ccccc2)N(C)C(=O)[C@H](CC(=O)O)NC(=O)[C@H]2CCCCN2C1=O [Example 116] (cyclo(D[dNMeF]P[dF]I[dPip])) , give the reported IC50.
1450

For the compound shown here, CC[C@H](C)[C@@H]1NC(=O)[C@@H](Cc2c[nH]c3ccccc23)NC(=O)[C@@H]2CCCN2C(=O)[C@@H](Cc2ccc(OCc3ccccc3)cc2)N(C)C(=O)[C@@H]2CCCCN2C(=O)[C@H]2CCCCN2C1=O [Example 33] (cyclo(I[dPip][Pip][dNMeY](Bn)P[dW])) , give the reported IC50.
100

The reported measurements were obtained from patent US5225528A.
